# Measured target: Estrogen Receptor (ERα) in MCF-7 human ductal carcinoma breast cell line (Homo sapiens, UniProt P03372)
# Construct: endogenous in cells; host or cells: MCF-7
# Sequence (P03372 1-595): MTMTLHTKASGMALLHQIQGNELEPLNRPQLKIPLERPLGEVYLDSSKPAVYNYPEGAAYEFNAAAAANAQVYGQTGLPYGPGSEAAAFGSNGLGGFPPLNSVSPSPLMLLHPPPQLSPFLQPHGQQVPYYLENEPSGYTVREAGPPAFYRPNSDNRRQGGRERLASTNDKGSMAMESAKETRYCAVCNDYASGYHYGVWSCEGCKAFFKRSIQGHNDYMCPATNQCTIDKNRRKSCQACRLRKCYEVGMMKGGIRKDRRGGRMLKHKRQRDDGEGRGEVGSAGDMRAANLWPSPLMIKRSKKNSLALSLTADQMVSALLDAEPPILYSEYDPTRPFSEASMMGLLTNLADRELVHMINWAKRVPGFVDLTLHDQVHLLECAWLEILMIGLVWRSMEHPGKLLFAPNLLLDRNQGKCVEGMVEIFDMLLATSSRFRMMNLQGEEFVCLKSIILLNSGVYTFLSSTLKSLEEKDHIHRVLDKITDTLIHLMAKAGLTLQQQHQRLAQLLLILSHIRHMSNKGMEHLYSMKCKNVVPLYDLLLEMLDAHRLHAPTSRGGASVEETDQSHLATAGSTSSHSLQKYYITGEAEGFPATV
# Assay info: MCF-7 ER degradation assay (cell based immuno-fluorescence)
# Cond: MCF-7 cells, 18-22 hours incubation, 50% reduction of ERα expression; single experiment or average of two or more; read-out: MCF-7 ER degradation IC50
Please provide measured DC50 for the entries that follow.
Answers are plain numbers, in nM.

# example entries with known answers
[
  {
    "Compound smiles": "Cc1ncsc1-c1ccc(CNC(=O)[C@@H]2C[C@@H](O)CN2C(=O)[C@@H](NC(=O)COCCOCCOCCOCCOCC(=O)Nc2ccc([C@@H]3c4[nH]c5ccccc5c4C[C@@H](C)N3CC(C)(C)F)cc2)C(C)(C)C)cc1",
    "Display unit": "nM",
    "DC50": 1.5
  },
  {
    "Compound smiles": "Cc1ncsc1-c1ccc([C@H](C)NC(=O)[C@@H]2C[C@@H](O)CN2C(=O)[C@@H](NC(=O)COCCCCCOCCOc2cc(F)c([C@@H]3c4[nH]c5ccccc5c4C[C@@H](C)N3CC(C)(C)F)c(F)c2)C(C)(C)C)cc1",
    "Display unit": "nM",
    "DC50": 0.4
  },
  {
    "Compound smiles": "Cc1ncsc1-c1ccc(CNC(=O)[C@@H]2C[C@@H](O)CN2C(=O)[C@@H](NCc2ccc(COc3cc(F)c([C@@H]4c5[nH]c6ccccc6c5C[C@@H](C)N4CC(C)(C)F)c(F)c3)cc2)C(C)(C)C)cc1",
    "Display unit": "nM",
    "DC50": 9.1
  }
]

Now, please, on to the next compound.
Enquiry: Look at this compound and give its reported DC50. `Cc1ncsc1-c1ccc(CNC(=O)[C@@H]2C[C@@H](O)CN2C(=O)[C@@H](NC(=O)COCCOCCOCCNC(=O)/C=C/c2cc(F)c([C@@H]3c4[nH]c5ccccc5c4C[C@@H](C)N3CC(C)(C)F)c(F)c2)C(C)(C)C)cc1`
Return: 0.6
